Attribute: Pupation IC50 relative to larval weight gain IC50
# Tested on: blowfly larvae (Lucilia cuprina)
# assayProcedure: Blowfly larval bioassay
# Assay type: in vivo
# conditionLabel: ratio of the two bioassay IC50 values

Consider the reported Pupation IC50 relative to larval weight gain IC50 for these compounds:
CCC(=O)CCCCC[C@@H]1NC(=O)[C@H]2CCCCN2C(=O)[C@H]([C@@H](C)CC)NC(=O)[C@H](Cc2cn(OC)c3ccccc23)NC1=O; 6 fold
C/C=C1\NC(=O)[C@H]2CSSCC/C=C/[C@H](CC(=O)N[C@H](C(C)C)C(=O)N2)OC(=O)[C@H](C(C)C)NC1=O; ≤ 2 fold

// next item, Pupation IC50 relative to larval weight gain IC50 requested
Consider "CC(/C=C/C(=O)NO)=C\[C@@H](C)C(=O)c1ccc(N(C)C)cc1" . Its measured Pupation IC50 relative to larval weight gain IC50 is ≤ 2 fold
